Reference source for all entries: patent US20250296938A1

# Test system: HRas wild type
# Test: Ras GTP binding domain inhibition assay (Cy3-GTP/Cy5-GTP competition)
# Set-up: species or system human
# Condition Notes: at 20 μM, with SOS
Quantity Name: HRAS wild type + SOS: % inh.

Molecule	Observed Measurement
CO[C@H]1CC[C@@H](Nc2nc(-c3nccn3C)nc3sc(-c4ccn(C(C)C)n4)c(C)c23)C1 [drawing 1054]	D (76-100% inhibition)
COc1cccc(-c2sc3nc(-c4nccn4C)nc(NC4CCC(OC)C4)c3c2-c2ccccc2)c1F (centres unmarked) [drawing 1018]	D (76-100% inhibition)
COC1CCC(Nc2nc(-c3nccn3C)nc3sc(-c4cccc5[nH]ncc45)c(-c4ccccc4)c23)C1 (centres unmarked) [drawing 1023]	D (76-100% inhibition)
CO[C@H]1C[C@@H](Nc2nc(-c3ccccn3)nc3sccc23)C1 [drawing 1037]	D (76-100% inhibition)
COc1cccc(-c2sc3nc(-c4nccn4C)nc(NC4CCC(OC)C4)c3c2-c2ccccc2)c1F (centres unmarked) [drawing 1020]	D (76-100% inhibition)
CN(C)CCOCCNc1nc(-c2nccn2C)nc2sc(-c3ccn(C)n3)c(-c3ccccc3)c12 [drawing 1042]	D (76-100% inhibition)
CO[C@H]1C[C@@H](Nc2nc(-c3nccn3C)nc3sccc23)C1 [drawing 1038]	D (76-100% inhibition)
Cn1ccc(-c2sc3nc(-c4nccn4C)nc(N[C@@H]4CC[C@H](O)C4)c3c2C2=CC=CCC=C2)n1 (racemic)	A (1-25% inhibition)
CO[C@H]1C[C@H](Nc2nc(-c3nccn3C)nc3sc(-c4ccn(C)n4)c(-c4ccccc4)c23)C1 [drawing 1041]	D (76-100% inhibition)
CO[C@H]1C[C@@H](Nc2nc(-c3nccn3C)nc3sc(-c4ccn(C)n4)c(-c4ccccc4)c23)C1.Cl [drawing 1040]	D (76-100% inhibition)
Cn1ccc(-c2sc3nc(-c4nccn4C)nc(N[C@H]4C[C@@H](O)C4)c3c2-c2ccccc2)n1 [drawing 1043]	A (1-25% inhibition)
